# measurement_notes: Solubility measurement at 50° C. (HPLC of saturated solution)
# Assay type: physicochemical
# condition_context: chloroform, 50 °C, organic solvent or mixture
Where a name gives a salt, the structure may show the parent alone.

compound	solubility
Cc1nc2c(F)c(-c3cccc(Cl)c3Cl)c(CCC#N)cc2c2c1cc(C1CC3C[C@H]3N1C(=O)C1CC1)n2C1[C@H]2CN[C@@H]1C2 (atropisomer, axis not shown; (Ra)) [Compound 1 HCl, monohydrochloride dihydrate]	15 to 50 mg/mL

----------
# measurement_notes: Solubility measurement at 25° C. (HPLC of saturated solution)
# Assay type: physicochemical
# condition_context: Dimethylformamide, 25 °C, organic solvent or mixture; by visual assessment
Structures can show the parent of a compound that is named as a salt.

molecule	solubility
Cc1nc2c(F)c(-c3cccc(Cl)c3Cl)c(CCC#N)cc2c2c1cc(C1CC3C[C@H]3N1C(=O)C1CC1)n2C1[C@H]2CN[C@@H]1C2 (atropisomer, axis not shown; (Ra)) [Compound 1 HCl, monohydrochloride dihydrate]	> 50 mg/mL

----------
# measurement_notes: Solubility measurement at 50° C. (HPLC of saturated solution)
# Assay type: physicochemical
# condition_context: heptane, 50 °C, organic solvent or mixture
Where a name gives a salt, the structure may show the parent alone.

molecule	solubility
Cc1nc2c(F)c(-c3cccc(Cl)c3Cl)c(CCC#N)cc2c2c1cc(C1CC3C[C@H]3N1C(=O)C1CC1)n2C1[C@H]2CN[C@@H]1C2 (atropisomer, axis not shown; (Ra)) [Compound 1 HCl, monohydrochloride dihydrate]	20 µg/mL

----------
# measurement_notes: Solubility measurement at 50° C. (HPLC of saturated solution)
# Format: physicochemical
# condition_context: n-BuOH, 50 °C, organic solvent or mixture; by visual assessment
Structures can show the parent of a compound that is named as a salt.

molecule	solubility
Cc1nc2c(F)c(-c3cccc(Cl)c3Cl)c(CCC#N)cc2c2c1cc(C1CC3C[C@H]3N1C(=O)C1CC1)n2C1[C@H]2CN[C@@H]1C2 (atropisomer, axis not shown; (Ra)) [Compound 1 HCl, monohydrochloride dihydrate]	> 50 mg/mL

----------
# measurement_notes: Solubility measurement at 50° C. (HPLC of saturated solution)
# Assay type: physicochemical
# condition_context: 2-methoxyethanol, 50 °C, organic solvent or mixture; by visual assessment
Where a name gives a salt, the structure may show the parent alone.
property_measured: solubility

molecule	measured_result
Cc1nc2c(F)c(-c3cccc(Cl)c3Cl)c(CCC#N)cc2c2c1cc(C1CC3C[C@H]3N1C(=O)C1CC1)n2C1[C@H]2CN[C@@H]1C2 (atropisomer, axis not shown; (Ra)) [Compound 1 HCl, monohydrochloride dihydrate]	> 50 mg/mL

----------
# measurement_notes: Solubility measurement at 25° C. (HPLC of saturated solution)
# Type: physicochemical
# condition_context: Tetrahydrofuran (THF), 25 °C, organic solvent or mixture
Where a name gives a salt, the structure may show the parent alone.

compound	solubility
Cc1nc2c(F)c(-c3cccc(Cl)c3Cl)c(CCC#N)cc2c2c1cc(C1CC3C[C@H]3N1C(=O)C1CC1)n2C1[C@H]2CN[C@@H]1C2 (atropisomer, axis not shown; (Ra)) [Compound 1 HCl, monohydrochloride dihydrate]	< 1000 µg/mL

----------
# measurement_notes: Solubility measurement at 50° C. (HPLC of saturated solution)
# Format: physicochemical
# condition_context: 3% MeOH, 0.3% water in EtOAc, 50 °C, organic solvent or mixture, 3% MeOH 0.3% water in EtOAc
Counter-ions that a name gives are not always drawn.
property_measured: solubility

molecule	measured_result
Cc1nc2c(F)c(-c3cccc(Cl)c3Cl)c(CCC#N)cc2c2c1cc(C1CC3C[C@H]3N1C(=O)C1CC1)n2C1[C@H]2CN[C@@H]1C2 (atropisomer, axis not shown; (Ra)) [Compound 1 HCl, monohydrochloride dihydrate]	< 1000 µg/mL

Reference for the values: patent US20250115603A1
